- SYSTEM_TESTED: N1P1
- ASSAY_METHOD_TEXT: fluorescence anisotropy displacement; Fig 9B
Measured Ki, listed per entry.

See these solved cases before continuing.
INSERT INTO assay_data (binder, reported_property, test_value) VALUES
  ('Ac-EVQSTRL-OH', 'Ki', '710 nM'),
  ('Ac-E(dirhodium)WPTSII-OH (also: dirhodium metal complex at Glu side chain) [E(Rh)WPTSII]', 'Ki', '> 50000 nM'),
  ('Ac-E(dirhodium)VQSTRL-OH (also: dirhodium metal complex at Glu side-chain carboxylate) [E(Rh)VQSTRL]', 'Ki', '32 nM'),
  ('Ac-VQDTRL-OH', 'Ki', '700 nM');

Okay, next one:
Value of measured Ki for the entry Ac-EWPTSII-OH : > 500000 nM
